Below: a set of entries, each annotated with reported OD450.
- assayed-target: T1, human MSLN-FL-his protein (human, UniProt Q13421 296-580)
- T1 construct: Made in HEK293E cells, purified on nickel column; also called hMSLN-FL-his; human MSLN full-length protein; not shown: His tag
- T1 sequence (Q13421 other isoform, or with tags, fused parts or gaps): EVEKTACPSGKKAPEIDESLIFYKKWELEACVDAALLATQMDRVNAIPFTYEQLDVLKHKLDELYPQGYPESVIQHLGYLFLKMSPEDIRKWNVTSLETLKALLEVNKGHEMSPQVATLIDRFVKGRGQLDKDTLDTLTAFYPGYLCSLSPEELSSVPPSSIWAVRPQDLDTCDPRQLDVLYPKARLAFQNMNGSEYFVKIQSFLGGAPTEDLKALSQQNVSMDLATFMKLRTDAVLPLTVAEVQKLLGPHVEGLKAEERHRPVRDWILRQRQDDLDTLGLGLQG
- procedure-details: ELISA, coated antigen, antibody 0.02 nM

**Query** // returns reported OD450 for input S009-F7.2.3 chimeric antibody (antibody, human IgG1, kappa, V domains shown, Human-murine chimeric antibody, human IgG1/kappa constant regions) VH: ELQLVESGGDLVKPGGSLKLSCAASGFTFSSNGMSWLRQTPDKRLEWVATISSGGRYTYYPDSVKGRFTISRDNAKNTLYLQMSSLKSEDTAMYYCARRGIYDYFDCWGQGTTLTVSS VL: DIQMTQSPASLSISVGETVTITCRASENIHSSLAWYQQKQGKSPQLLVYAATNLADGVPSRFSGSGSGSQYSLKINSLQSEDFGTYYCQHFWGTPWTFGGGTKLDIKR
**Result** 1.28

Entry source: patent US20250250357A1
